- System: human 5-HT1A receptor (Homo sapiens (Human))
- Sequence (P08908 whole entry): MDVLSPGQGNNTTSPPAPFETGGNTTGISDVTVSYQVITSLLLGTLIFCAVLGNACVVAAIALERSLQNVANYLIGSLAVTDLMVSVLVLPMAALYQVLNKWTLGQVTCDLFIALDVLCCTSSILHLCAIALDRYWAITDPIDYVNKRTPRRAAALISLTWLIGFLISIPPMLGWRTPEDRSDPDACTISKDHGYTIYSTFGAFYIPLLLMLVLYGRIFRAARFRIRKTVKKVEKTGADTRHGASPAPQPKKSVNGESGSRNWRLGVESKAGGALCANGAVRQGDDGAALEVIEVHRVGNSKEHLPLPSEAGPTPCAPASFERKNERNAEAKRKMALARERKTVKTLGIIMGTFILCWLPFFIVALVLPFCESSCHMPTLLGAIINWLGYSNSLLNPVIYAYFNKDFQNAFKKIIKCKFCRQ
- Experiment notes: Test 1: agonistic activity for human 5-HT1A receptor (aequorin/Gα16 luminescence in CHO-K1 cell)
- Condition notes: CHO-K1 cell, aequorin luminescence
Endpoint: EC50 (nM)

These recorded examples may help you get a feel for the data.
COCC(C)(C)C(=O)NCCN1CC=C(c2cccc(C(F)(F)F)n2)CC1 [Example 18] :: 68
O=C(NCCN1CCC(c2cccc(C(F)(F)F)n2)CC1)C1CCOC1 (centres unmarked) [Example 23] :: 632

a. CO[C@H]1CC[C@H](C(=O)NCCN2CCC(c3cccc(C(F)(F)F)n3)CC2)CC1 [Example 27]
b. CNc1cccc(C2CCN(CCNC(=O)C3CCOCC3)CC2)n1 [Example 37]
Which of the two items, a and b , has the greater recorded EC50? Label of pick, please.
a
(a: 570 nM, b: 343 nM)

---

- Experiment notes: Test 4-2: predictive test of human half-life (monkey distribution volume, serum unbound fraction, Test 3-2 stability)
- Condition notes: in vivo, predicted using Test 3-2 metabolic stability
Endpoint: half-life (h)

O=C(NCCN1CCC(c2cccc(C(F)(F)F)n2)CC1)C1CCOCC1 :: 17

1. O=C(NCCN1CCC(c2cccc(C(F)(F)F)n2)CC1)C1CCC(F)(F)CC1
2. Cc1cccc(C2CCN(CCNC(=O)C3CCOCC3)CC2)n1
3. CC(C)(C)C(=O)NCCN1CCC(c2cccc(C(F)(F)F)n2)CC1
Rank the 3 compounds: largest half-life first, smallest last. Could you list the labels in the order requested?
2, 1, 3
(2: 59 h, 1: 24 h, 3: 10 h)

---

- Experiment notes: Test 4-1: predictive test of human half-life (monkey distribution volume, serum unbound fraction, Test 3-1 stability)
- Condition notes: in vivo, predicted using Test 3-1 metabolic stability
Endpoint: half-life (h)

O=C(NCCN1CCC(c2cccc(C(F)(F)F)n2)CC1)C1CCOCC1 :: 13
Cc1cccc(C2CCN(CCNC(=O)C3CCOCC3)CC2)n1 :: 9.2
O=C(NCCN1CCC(c2cccc(C(F)(F)F)n2)CC1)C1CCC(F)(F)CC1 :: 11

---

- System: human 5-HT1A receptor (Homo sapiens (Human))
- Experiment notes: Test 2: binding activity to human 5-HT1A receptor ([3H] 8-OH-DPAT, CHO cell membrane)
- Condition notes: [3H] 8-OH-DPAT; read-out: 5-HT1A binding affinity (Ki value)
Endpoint: Ki (nM)

Here's what some known entries look like.
CO[C@H]1CC[C@H](C(=O)NCCN2CCC(c3cccc(C)n3)CC2)CC1 :: 79
Nc1cccc(C2CCN(CCNC(=O)C3CCOCC3)CC2)n1 :: 132
CN(C)c1cccc(C2CCN(CCNC(=O)C3CCOCC3)CC2)n1 :: 37
Cc1cccc(C2=CCN(CCNC(=O)C(C)(C)C)CC2)n1 :: 1.4
N#Cc1cccc(C2CCN(CCNC(=O)C3CCOCC3)CC2)n1 :: 278
Cc1cccc(C2CCN(CCNC(=O)C3CCOCC3)CC2)n1 :: 1.4
Cc1cccc(C2CCN(CCNC(=O)C3CCCO3)CC2)n1 (stereo not shown) :: 27
O=C(NCCN1CCC(c2cccc(C(F)(F)F)n2)CC1)C1CCOC1 (stereo not shown) :: 166

A. Cc1cccc(C2CCN(CCNC(=O)C3CCOC3)CC2)n1 (stereo not shown)
B. O=C(NCCN1CCC(c2cccc(C(F)(F)F)n2)CC1)C1CCC(F)(F)CC1
From the recorded data, which exceeds the other in Ki: A or B ? Pick one and reply with its label.
A
(A: 58 nM, B: 0.4 nM)

a. Cc1cccc(C2CCN(CCNC(=O)C3CC4CCC3O4)CC2)n1 (stereo not shown)
b. COCC1(C(=O)NCCN2CCC(c3cccc(C(F)(F)F)n3)CC2)CC1
Could you tell me which of a and b has the lower Ki reading? Kindly state the label of the option you pick.
a

1. CC(C)(C)C(=O)NCCN1CCC(c2cccc(C(F)(F)F)n2)CC1
2. O=C(NCCN1CCC(c2cccc(C(F)(F)F)n2)CC1)[C@H]1C[C@@H]2CC[C@H]1O2
I need your help: which of the pair 1 , 2 has higher Ki? // return label of chosen record
2
(2: 15 nM, 1: 1.1 nM)

---

- Experiment notes: Test 3-1: metabolic stability test of human liver microsome (0.1 mg/mL)
- Assay type: in vitro ADME
- Condition notes: test compound 0.1 μmol/L, 37° C., 30 minutes
Endpoint: Metabolic stability of human liver microsome (mL/min/mg protein)

Some compounds with known Metabolic stability of human liver microsome results, for comparison:
Cc1cccc(C2CCN(CCNC(=O)C3CCOCC3)CC2)n1 [Example 8] :: 0.017
COCC1(C(=O)NCCN2CCC(c3cccc(C(F)(F)F)n3)CC2)CC1 [Example 7] :: 0.017

A. O=C(NCCN1CCC(c2cccc(C(F)(F)F)n2)CC1)C1CCC(F)(F)CC1 [Example 1]
B. CC(C)(C)C(=O)NCCN1CCC(c2cccc(C(F)(F)F)n2)CC1 [Example 9]
Hi, I'm comparing two records. Which one has the lower Metabolic stability of human liver microsome, A or B ? Write down the label of the entry you select.
B

---

- System: human D2 receptor (Homo sapiens (Human), UniProt P14416)
- Sequence (P14416 whole entry): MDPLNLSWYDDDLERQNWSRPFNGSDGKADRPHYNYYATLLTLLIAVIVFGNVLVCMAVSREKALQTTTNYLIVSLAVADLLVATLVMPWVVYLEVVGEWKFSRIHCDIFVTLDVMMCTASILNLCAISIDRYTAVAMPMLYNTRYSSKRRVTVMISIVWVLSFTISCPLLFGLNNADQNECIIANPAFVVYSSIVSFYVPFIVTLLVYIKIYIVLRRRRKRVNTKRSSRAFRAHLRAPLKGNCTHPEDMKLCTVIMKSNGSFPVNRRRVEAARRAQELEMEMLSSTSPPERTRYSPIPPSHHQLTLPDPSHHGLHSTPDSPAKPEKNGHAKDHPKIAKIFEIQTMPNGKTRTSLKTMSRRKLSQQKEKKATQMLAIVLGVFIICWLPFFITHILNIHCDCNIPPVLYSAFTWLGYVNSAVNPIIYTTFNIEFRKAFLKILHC
- Experiment notes: Test 2: binding activity to human D2 receptor ([3H] spiperone, CHO cell membrane)
- Condition notes: [3H] spiperone; read-out: D2 binding affinity (Ki value)
pKi: −log10 of the molar value.
Endpoint: pKi

O=C(NCCN1CCC(c2cccc(OC(F)(F)F)n2)CC1)C1CCOCC1 :: 5.61
O=C(NCCN1CC=C(c2cccc(C(F)(F)F)n2)CC1)C1CCCOC1 (stereo not shown) :: 5.77
O=C(NCCN1CCC(c2cccc(C(F)(F)F)n2)CC1)[C@H]1C[C@@H]2CC[C@H]1O2 :: 5.66

---

- System: human 5-HT1A receptor (Homo sapiens (Human))
- Experiment notes: Test 1: agonistic activity for human 5-HT1A receptor (aequorin/Gα16 luminescence in CHO-K1 cell)
- Assay type: cell-based
- Condition notes: CHO-K1; 100% = 10 μmol/L endogenous ligand
Endpoint: Emax (%)

Cc1cccc(C2=CCN(CCNC(=O)[C@H]3C[C@@H]4CC[C@H]3O4)CC2)n1 [Example 13] :: 48
O=C(NCCN1CCC(c2cccc(C(F)F)n2)CC1)C1CCOCC1 [Example 34] :: 42
O=C(NCCN1CCC(c2cccc(C(F)(F)F)n2)CC1)[C@H]1C[C@@H]2CC[C@H]1O2 [Example 21] :: 30
CO[C@H]1CC[C@H](C(=O)NCCN2CCC(c3cccc(C(F)(F)F)n3)CC2)CC1 [Example 27] :: 44
O=C(NCCN1CCC(c2cccc(C(F)(F)F)n2)CC1)C1CCOC1 (centres unmarked) [Example 23] :: 28

A. Cc1cccc(C2CCN(CCNC(=O)C3CCOCC3)CC2)n1 [Example 8]
B. Cc1cccc(C2CCN(CCNC(=O)C3CCCOC3)CC2)n1 (centres unmarked) [Example 15]
Name the one with the greater Emax value, either A or B as given. In your reply, give the label of the chosen option.
A
(A: 71%, B: 33%)

---

- System: UniProt:Q12809
- Sequence (Q12809 whole entry): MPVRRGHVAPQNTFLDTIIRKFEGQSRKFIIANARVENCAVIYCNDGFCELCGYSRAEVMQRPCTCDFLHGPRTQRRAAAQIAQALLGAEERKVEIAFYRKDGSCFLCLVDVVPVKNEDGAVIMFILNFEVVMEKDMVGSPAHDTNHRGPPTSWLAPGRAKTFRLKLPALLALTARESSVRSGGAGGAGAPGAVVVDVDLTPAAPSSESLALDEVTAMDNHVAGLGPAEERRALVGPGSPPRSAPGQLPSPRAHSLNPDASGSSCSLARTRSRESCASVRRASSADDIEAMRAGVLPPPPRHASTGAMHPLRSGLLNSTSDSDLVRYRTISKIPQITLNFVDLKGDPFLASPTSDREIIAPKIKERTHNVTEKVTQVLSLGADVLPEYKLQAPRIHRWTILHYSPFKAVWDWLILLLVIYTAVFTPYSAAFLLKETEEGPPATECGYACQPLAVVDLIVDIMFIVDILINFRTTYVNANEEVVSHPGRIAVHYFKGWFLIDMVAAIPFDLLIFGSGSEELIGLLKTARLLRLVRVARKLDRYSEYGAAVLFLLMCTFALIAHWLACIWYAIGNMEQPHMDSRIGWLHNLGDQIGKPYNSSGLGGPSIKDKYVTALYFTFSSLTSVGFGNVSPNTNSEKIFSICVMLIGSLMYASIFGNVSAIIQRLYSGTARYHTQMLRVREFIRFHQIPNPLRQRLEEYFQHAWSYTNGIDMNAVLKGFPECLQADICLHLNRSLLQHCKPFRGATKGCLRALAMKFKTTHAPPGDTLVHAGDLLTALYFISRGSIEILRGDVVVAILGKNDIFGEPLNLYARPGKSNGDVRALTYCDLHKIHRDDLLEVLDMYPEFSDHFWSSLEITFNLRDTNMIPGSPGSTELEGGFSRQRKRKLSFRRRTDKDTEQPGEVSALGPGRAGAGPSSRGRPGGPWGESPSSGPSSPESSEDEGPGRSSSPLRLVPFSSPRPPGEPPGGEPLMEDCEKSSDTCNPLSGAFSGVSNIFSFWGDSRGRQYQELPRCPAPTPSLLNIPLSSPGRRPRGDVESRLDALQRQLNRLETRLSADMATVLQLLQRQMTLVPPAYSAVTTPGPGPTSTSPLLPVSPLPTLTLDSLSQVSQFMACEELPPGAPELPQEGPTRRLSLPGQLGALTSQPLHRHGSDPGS
- Experiment notes: Test 5-1: activity for inhibiting hERG channel (whole-cell patch clamp, hERG-CHO cell, Qpatch)
- Assay type: cell-based
- Condition notes: read-out: hERG inhibition IC50
Entries and their pIC50
In plain terms, pIC50 is the concentration in mol/L turned into minus its base-10 logarithm.

Solved entries:
Cc1cccc(C2CCN(CCNC(=O)C3CC4CCC3O4)CC2)n1 (centres unmarked) [Example 3] :: 4.49
Cc1cccc(C2CCN(CCNC(=O)C3CCC(F)(F)CC3)CC2)n1 [Example 4] :: 5.40
Cc1cccc(C2CCN(CCNC(=O)C3CCOCC3)CC2)n1 [Example 8] :: 4.35
CC(C)(C)C(=O)NCCN1CCC(c2cccc(C(F)(F)F)n2)CC1 [Example 9] :: 5.23
COCC1(C(=O)NCCN2CCC(c3cccc(C(F)(F)F)n3)CC2)CC1 [Example 7] :: 5.25

Give recorded pIC50 with UniProt:Q12809 for the following molecule: O=C(NCCN1CCC(c2cccc(C(F)(F)F)n2)CC1)C1CCC(F)(F)CC1 [Example 1]
5.60

---

- System: human 5-HT1A receptor (Homo sapiens (Human))
- Experiment notes: Test 1: agonistic activity for human 5-HT1A receptor (aequorin/Gα16 luminescence in CHO-K1 cell)
- Type: cell-based
- Condition notes: 100% = 10 μmol/L endogenous ligand
Endpoint: 5-HT1A agonistic activity Emax (%)

COCC(C)(C)C(=O)NCCN1CCC(c2cccc(C)n2)CC1 :: 100
O=C(NCCN1CCC(c2cccc(C(F)(F)F)n2)CC1)C1CCCOC1 (stereo not drawn) :: 86
COCC(C)(C)C(=O)NCCN1CCC(c2cccc(C(F)(F)F)n2)CC1 :: 96
COCC1(C(=O)NCCN2CCC(c3cccc(C(F)(F)F)n3)CC2)CC1 :: 106
Cc1cccc(C2CCN(CCNC(=O)C(C)(C)C)CC2)n1 :: 90
Cc1cccc(C2CCN(CCNC(=O)C3CCC(F)(F)CC3)CC2)n1 :: 90
